Assay system: UniProt P20815
Sequence (P20815 whole entry): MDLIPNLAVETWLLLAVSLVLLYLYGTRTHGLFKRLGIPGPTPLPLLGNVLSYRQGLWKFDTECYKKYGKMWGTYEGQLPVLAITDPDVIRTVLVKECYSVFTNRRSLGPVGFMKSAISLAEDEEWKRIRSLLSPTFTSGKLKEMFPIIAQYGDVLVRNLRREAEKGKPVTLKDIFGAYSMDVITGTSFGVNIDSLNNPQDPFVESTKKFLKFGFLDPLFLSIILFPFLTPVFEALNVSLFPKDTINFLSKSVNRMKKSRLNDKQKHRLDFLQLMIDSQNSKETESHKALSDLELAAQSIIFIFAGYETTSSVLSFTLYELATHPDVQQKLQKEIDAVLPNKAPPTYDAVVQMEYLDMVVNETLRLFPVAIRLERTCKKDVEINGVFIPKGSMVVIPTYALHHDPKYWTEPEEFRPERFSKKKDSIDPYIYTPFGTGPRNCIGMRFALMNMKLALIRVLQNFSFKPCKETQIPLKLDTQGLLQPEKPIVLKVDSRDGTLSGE
Assay: Inhibition of human recombinant CYP3A5 expressed in supersomes assessed as decrease in formation of D-luciferin using luciferin-IPA as substrate incubated for 10 mins in presence of NADPH by P450-Glo luminescence assay
Condition info: probe luciferin-IPA
Parameter measured: IC90 at 10 min (nM)

>>> data_value("CCC(=O)O[C@]1(C(=O)CCl)[C@@H](C)C[C@H]2[C@@H]3CCC4=CC(=O)C=C[C@]4(C)[C@@]3(F)[C@@H](O)C[C@@]21C [CLOBETASOL PROPIONATE]")
1800
